Would you kindly list AUC(0-t) for each of these molecules?
assay: AUC (0 to t) in Wistar rat at 3 mg/kg, iv by LC-Ms/MS analysis; assay type: ADME, organism-based; conditions: in vivo
Give bare numbers, in µM·h.

Recorded results for 3 molecules are shown here.
molecule=CCCn1c(Oc2ccc(F)c(F)c2)nc2nc(C3CCCC3)[nH]c2c1=O parameter_measured=AUC(0-t) units_text=µM·h readout_number=10.2
molecule="CCCn1c(OC2CCC(O)C2)nc2nc(C3CCCC3)[nH]c2c1=O (centres undefined)" parameter_measured=AUC(0-t) units_text=µM·h readout_number=3
molecule=CCCn1c(Oc2cccnc2C)nc2nc(C3CCCC3)[nH]c2c1=O parameter_measured=AUC(0-t) units_text=µM·h readout_number=2.7

Turning to the following molecule.
Q. Report measured AUC(0-t); entry is CCCn1c(-c2cccc(OC)c2)nc2nc(C3CCCC3)[nH]c2c1=O
A. 3.53

====

molecular target: CYP2C19 (Homo sapiens, UniProt P33261); experiment: Inhibition of CYP2C19 (unknown origin) at 5 uM relative to control; assay type: ADME
Sequence (P33261 whole entry): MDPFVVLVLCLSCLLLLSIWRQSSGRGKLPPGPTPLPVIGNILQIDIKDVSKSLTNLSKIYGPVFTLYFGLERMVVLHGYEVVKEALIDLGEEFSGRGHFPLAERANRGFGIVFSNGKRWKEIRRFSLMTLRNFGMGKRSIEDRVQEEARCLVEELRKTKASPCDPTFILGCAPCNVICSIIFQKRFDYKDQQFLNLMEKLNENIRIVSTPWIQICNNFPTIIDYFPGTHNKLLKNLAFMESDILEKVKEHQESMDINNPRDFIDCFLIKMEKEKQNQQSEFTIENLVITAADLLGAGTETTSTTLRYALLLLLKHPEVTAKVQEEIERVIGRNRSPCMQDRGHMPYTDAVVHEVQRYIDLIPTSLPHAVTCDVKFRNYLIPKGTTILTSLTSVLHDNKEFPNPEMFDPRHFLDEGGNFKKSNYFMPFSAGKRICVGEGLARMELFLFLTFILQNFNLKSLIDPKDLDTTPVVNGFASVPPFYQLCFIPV
Parameter Measured: inhibition at 5 µM
Write the figure, then the unit, nothing else.

Recorded results for 2 molecules are shown here.
molecule=CCCn1c(Oc2ccc(F)c(F)c2)nc2nc(C3CCCC3)[nH]c2c1=O parameter_measured="inhibition at 5 µM" result=0%
molecule="CCCn1c(OC2CCC(O)C2)nc2nc(C3CCCC3)[nH]c2c1=O (stereo not drawn)" parameter_measured="inhibition at 5 µM" result=3%

Turning to the following molecule.
Q. Report measured inhibition at 5 µM; entry is CCCn1c(Oc2cccnc2C)nc2nc(C3CCCC3)[nH]c2c1=O
A. 10%

====

target: Adenosine receptor A1 (Homo sapiens); experiment: Antagonist activity at human adenosine A1 receptor expressed in HEK293 cells assessed as reduction in CPA-mediated inhibition of forskolin-stimulated cAMP level preincubated for 15 mins followed by CPA treatment for 15 mins and subsequent addition of forskolin measured after 30 mins by HTRF assay; assay type: functional, cell-based
Sequence (P30542 whole entry): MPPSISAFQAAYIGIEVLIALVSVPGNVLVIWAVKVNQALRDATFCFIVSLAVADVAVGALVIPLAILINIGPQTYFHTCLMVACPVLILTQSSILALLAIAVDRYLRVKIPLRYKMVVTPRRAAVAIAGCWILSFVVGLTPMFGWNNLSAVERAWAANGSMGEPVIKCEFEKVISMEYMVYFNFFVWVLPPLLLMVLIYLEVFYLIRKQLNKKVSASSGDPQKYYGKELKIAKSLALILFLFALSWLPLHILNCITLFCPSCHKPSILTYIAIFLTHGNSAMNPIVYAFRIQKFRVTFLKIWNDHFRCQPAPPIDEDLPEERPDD
Parameter Measured: pKi
Answers are plain numbers, as −log10 of the molar value.

Recorded results for 3 molecules are shown here.
molecular_string=CCCn1c(Oc2ccc(F)c(F)c2)nc2nc(C3CCCC3)[nH]c2c1=O readout_number=7.89
molecular_string=CCCn1c(Oc2cccnc2C)nc2nc(C3CCCC3)[nH]c2c1=O readout_number=9.55
molecular_string=CCCn1c(Oc2cccc3cc[nH]c23)nc2nc(C3CCCC3)[nH]c2c1=O readout_number=8.25

Hey, quick one: what's pKi for each of these?
1. CCCn1c(Oc2cncc(Cl)c2)nc2nc(C3CCCC3)[nH]c2c1=O
2. CCCn1c(Oc2cccc(C(F)(F)F)c2)nc2nc(C3CCCC3)[nH]c2c1=O

A.
1. 8.66
2. 8.23

====

Would you kindly list solubility thermodynamic for each of these compounds?
test: Thermodynamic solubility of the compound in pH 2 solution; format: physicochemical; details: read-out: Therm_solubility
Numbers only, in µM.

Recorded results for 3 compounds are shown here.
compound=CCCn1c(Oc2cccnc2C)nc2nc(C3CCCC3)[nH]c2c1=O units_text=µM readout_number=2150
compound=CCCn1c(Oc2ccc(F)c(F)c2)nc2nc(C3CCCC3)[nH]c2c1=O units_text=µM readout_number=77
compound=CCCn1c(-c2cccc(OC)c2)nc2nc(C3CCCC3)[nH]c2c1=O units_text=µM readout_number=614

Turning to the following compound.
Q. Report measured solubility thermodynamic; entry is CCCn1c(OC2CCC(O)C2)nc2nc(C3CCCC3)[nH]c2c1=O (centres undefined)
A. 2590
